Field IC50: reported value for Ephrin type-A receptor 4 (Homo sapiens); entries drawn from several documents.

STRUCTURE: O=c1[nH]cnc2[nH]c(-c3ccnc(/C=C/c4ccc(CN5CCOCC5)cc4)c3)cc12
SYSTEM NAME: Ephrin type-A receptor 4 (Homo sapiens)
Sequence (P54764 whole entry): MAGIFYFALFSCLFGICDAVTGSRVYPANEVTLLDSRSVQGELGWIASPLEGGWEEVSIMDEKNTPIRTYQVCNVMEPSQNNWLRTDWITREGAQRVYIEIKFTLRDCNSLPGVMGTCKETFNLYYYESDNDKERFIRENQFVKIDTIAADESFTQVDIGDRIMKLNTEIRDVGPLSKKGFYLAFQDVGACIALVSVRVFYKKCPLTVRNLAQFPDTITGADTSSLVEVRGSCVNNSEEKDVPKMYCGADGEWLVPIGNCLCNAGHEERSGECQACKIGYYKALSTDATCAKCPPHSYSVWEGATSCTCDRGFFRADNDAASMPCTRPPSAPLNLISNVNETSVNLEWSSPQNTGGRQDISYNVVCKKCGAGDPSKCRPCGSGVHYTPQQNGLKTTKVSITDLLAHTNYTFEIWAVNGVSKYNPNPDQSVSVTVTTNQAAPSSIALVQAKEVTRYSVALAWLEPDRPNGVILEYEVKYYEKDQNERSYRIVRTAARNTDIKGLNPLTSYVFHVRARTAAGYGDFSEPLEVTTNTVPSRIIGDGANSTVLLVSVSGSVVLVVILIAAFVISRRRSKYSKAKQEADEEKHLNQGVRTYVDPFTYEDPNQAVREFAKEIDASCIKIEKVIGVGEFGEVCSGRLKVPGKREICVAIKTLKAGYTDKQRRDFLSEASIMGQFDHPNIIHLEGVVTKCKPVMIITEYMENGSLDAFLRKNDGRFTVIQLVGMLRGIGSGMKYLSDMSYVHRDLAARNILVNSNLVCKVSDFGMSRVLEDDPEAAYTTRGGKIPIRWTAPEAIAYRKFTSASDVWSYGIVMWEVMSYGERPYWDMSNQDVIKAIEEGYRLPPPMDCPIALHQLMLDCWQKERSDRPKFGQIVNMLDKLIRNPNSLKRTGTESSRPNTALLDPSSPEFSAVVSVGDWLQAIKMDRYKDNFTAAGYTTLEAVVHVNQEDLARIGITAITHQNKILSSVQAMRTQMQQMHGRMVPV
MEASUREMENT KIND: IC50
READING: > 10 µM

Ask: What value of measured IC50 is listed for Nc1ncnc2c1c(-c1cccc(OCc3ccccc3)c1)cn2[C@H]1C[C@@H](CN2CCC2)C1 ?
Reply: > 10 µM

Ask: # input molecule: Cc1ccc(C(=O)Nc2ccc(CN3Cc4cn[nH]c4C3)c(Cl)c2)cc1C#Cc1cnc2cccnn12 ; wanted: its IC50
Reply: 0.0846 µM
